Target: 5-hydroxytryptamine receptor 1A (Homo sapiens)
Assay: Displacement of [3H]-[…] from human recombinant 5HT1A receptor expressed in CHO cells after 60 mins by liquid scintillation counting analysis
METRIC: log10 of Ki (log10 of the value in nM)
# values: log10(Ki), units nM

Example cases with answers are listed next.
Query block: Report value only: log10 of Ki, 5-hydroxytryptamine receptor 1A (Homo sapiens), "O=C(NCCN1CC=C(c2cc(F)cc(F)c2)CC1)c1cnc2ccccc2n1"
Result block: 0.42

Query block: Report value only: log10 of Ki, 5-hydroxytryptamine receptor 1A (Homo sapiens), "O=C(NCCN1CCN(c2ccccc2)CC1)c1ccc2ccccc2c1"
Result block: 1.39

Query block: Report value only: log10 of Ki, 5-hydroxytryptamine receptor 1A (Homo sapiens), "Cc1cc(C)cc(N2CCN(CCN3C(=O)c4ccccc4C3=O)CC2)c1"
Result block: 2.70

Query block: Report value only: log10 of Ki, 5-hydroxytryptamine receptor 1A (Homo sapiens), "O=C1c2ccccc2C(=O)N1CCN1CC=C(c2ccc(Cl)cc2)CC1"
Result block: 2.80

Query block: Report value only: log10 of Ki, 5-hydroxytryptamine receptor 1A (Homo sapiens), "O=C(NCCN1CC=C(c2ccc(Cl)cc2)CC1)c1cnc2ccccc2n1"
Result block: 0.97

Continuing:
Query block: Report value only: log10 of Ki, 5-hydroxytryptamine receptor 1A (Homo sapiens), "O=C(NCCN1CC=C(c2ccccc2)CC1)c1ccc2ccccc2c1"
Result block: 0.79

Query block: Report value only: log10 of Ki, 5-hydroxytryptamine receptor 1A (Homo sapiens), "O=C(NCCN1CC=C(c2ccc(Cl)cc2)CC1)c1ccc2ccccc2c1"
Result block: 1.63

Query block: Report value only: log10 of Ki, 5-hydroxytryptamine receptor 1A (Homo sapiens), "Cc1cc(C)cc(C2=CCN(CCN3C(=O)c4ccccc4C3=O)CC2)c1"
Result block: 2.02

Query block: Report value only: log10 of Ki, 5-hydroxytryptamine receptor 1A (Homo sapiens), "O=C1c2ccccc2C(=O)N1CCN1CC=C(c2ccccc2)CC1"
Result block: 2.85

Query block: Report value only: log10 of Ki, 5-hydroxytryptamine receptor 1A (Homo sapiens), "Cc1ccc(N2CCN(CCNC(=O)c3cnc4ccccc4n3)CC2)cc1"
Result block: 1.44

Query block: Report value only: log10 of Ki, 5-hydroxytryptamine receptor 1A (Homo sapiens), "O=C(NCCN1CCN(c2ccc(F)cc2)CC1)c1ccc2ccccc2c1"
Result block: 1.73

Query block: Report value only: log10 of Ki, 5-hydroxytryptamine receptor 1A (Homo sapiens), "Cc1ccc(N2CCN(CCNC(=O)c3ccc4ccccc4c3)CC2)cc1"
Result block: 2.34

----------
Molecular target: 5-hydroxytryptamine receptor 1A (Homo sapiens) (UniProt P08908)
Test: Displacement of [3H]-[…] from human recombinant 5HT1A receptor expressed in CHO cells assessed as residual activity at 1 uM after 60 mins by liquid scintillation counting analysis
Assay type: cell-based
// assign Satisfied if Activity falls strictly below 80%, else Not satisfied (ties count as Not satisfied)

Here's what some known entries look like.
Query block: Report whether reported Activity is lower than 80% (strictly) for "O=C1c2ccccc2C(=O)N1CCN1CC=C(c2ccc(F)cc2)CC1"
Result block: Satisfied

Query block: Report whether reported Activity is lower than 80% (strictly) for "O=C1c2ccccc2C(=O)N1CCN1CCN(c2ccc(Cl)cc2)CC1"
Result block: Not satisfied

Let us examine a further case.
Query block: Report whether reported Activity is lower than 80% (strictly) for "Cc1ccc(N2CCN(CCN3C(=O)c4ccccc4C3=O)CC2)cc1"
Result block: Not satisfied

----------
Quick reference for Ki among some molecules
Biological target: 5-hydroxytryptamine receptor 1A (Homo sapiens)
Sequence (P08908 whole entry): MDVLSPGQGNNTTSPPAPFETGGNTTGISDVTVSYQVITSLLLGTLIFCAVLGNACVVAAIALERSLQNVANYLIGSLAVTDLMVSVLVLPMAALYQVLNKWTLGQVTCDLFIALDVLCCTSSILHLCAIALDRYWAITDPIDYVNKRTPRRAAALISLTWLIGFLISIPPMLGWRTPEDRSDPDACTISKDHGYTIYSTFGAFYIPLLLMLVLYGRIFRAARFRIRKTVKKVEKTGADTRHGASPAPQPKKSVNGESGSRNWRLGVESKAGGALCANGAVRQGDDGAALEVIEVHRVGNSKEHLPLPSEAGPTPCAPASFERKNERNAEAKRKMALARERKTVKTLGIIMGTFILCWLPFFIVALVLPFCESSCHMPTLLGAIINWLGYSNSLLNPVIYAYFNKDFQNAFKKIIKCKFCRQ
Assay: Displacement of [3H]-[…] from human recombinant 5HT1A receptor expressed in CHO cells after 60 mins by liquid scintillation counting analysis
The response must be a number in nM with no trailing unit.

Example cases with answers are listed next.
Query block: Quickly give me recorded Ki for "O=C(NCCN1CCN(c2cc(F)cc(F)c2)CC1)c1cnc2ccccc2n1"
Result block: 11.1

Query block: Quickly give me recorded Ki for "Cc1ccc(C2=CCN(CCNC(=O)c3ccc4ccccc4c3)CC2)cc1"
Result block: 31.6

Query block: Quickly give me recorded Ki for "O=C1c2ccccc2C(=O)N1CCN1CC=C(c2cc(F)cc(F)c2)CC1"
Result block: 425

Query block: Quickly give me recorded Ki for "O=C(NCCN1CCN(c2ccc(Cl)cc2)CC1)c1ccc2ccccc2c1"
Result block: 50.7

Query block: Quickly give me recorded Ki for "Cc1cc(C)cc(N2CCN(CCNC(=O)c3cnc4ccccc4n3)CC2)c1"
Result block: 3.67

Continuing:
Query block: Quickly give me recorded Ki for "O=C(NCCN1CCN(c2cc(F)cc(F)c2)CC1)c1ccc2ccccc2c1"
Result block: 28.9

Query block: Quickly give me recorded Ki for "Cc1ccc(C2=CCN(CCNC(=O)c3cnc4ccccc4n3)CC2)cc1"
Result block: 7.55

----------
Quick reference for pKi among some compounds
Biological target: UniProtKB P08908
Test: Displacement of [3H]-[…] from human recombinant 5HT1A receptor expressed in CHO cells after 60 mins by liquid scintillation counting analysis
Kindly note that pKi refers to -log10 of the concentration in mol/L and answer with the value alone.

Example cases with answers are listed next.
Query block: Quickly give me recorded pKi for "O=C(NCCN1CCN(c2ccccc2)CC1)c1cnc2ccccc2n1"
Result block: 7.52

Query block: Quickly give me recorded pKi for "O=C(NCCN1CC=C(c2ccc(F)cc2)CC1)c1ccc2ccccc2c1"
Result block: 7.47

Query block: Quickly give me recorded pKi for "O=C(NCCN1CCN(c2ccc(Cl)cc2)CC1)c1cnc2ccccc2n1"
Result block: 7.57

Query block: Quickly give me recorded pKi for "O=C(NCCN1CC=C(c2ccccc2)CC1)c1cnc2ccccc2n1"
Result block: 8.42

Query block: Quickly give me recorded pKi for "Cc1cc(C)cc(C2=CCN(CCNC(=O)c3ccc4ccccc4c3)CC2)c1"
Result block: 8.09

Continuing:
Query block: Quickly give me recorded pKi for "O=C(NCCN1CC=C(c2ccc(F)cc2)CC1)c1cnc2ccccc2n1"
Result block: 7.85

Query block: Quickly give me recorded pKi for "Cc1cc(C)cc(C2=CCN(CCNC(=O)c3cnc4ccccc4n3)CC2)c1"
Result block: 8.96

Query block: Quickly give me recorded pKi for "O=C(NCCN1CCN(c2ccc(F)cc2)CC1)c1cnc2ccccc2n1"
Result block: 7.20

Query block: Quickly give me recorded pKi for "Cc1cc(C)cc(N2CCN(CCNC(=O)c3ccc4ccccc4c3)CC2)c1"
Result block: 7.68

Query block: Quickly give me recorded pKi for "O=C(NCCN1CC=C(c2cc(F)cc(F)c2)CC1)c1ccc2ccccc2c1"
Result block: 8.14

----------
Quick reference for Activity among some molecules
Molecular target: 5-hydroxytryptamine receptor 1A (Homo sapiens) (UniProt P08908)
Test: Displacement of [3H]-[…] from human recombinant 5HT1A receptor expressed in CHO cells assessed as residual activity at 1 uM after 60 mins by liquid scintillation counting analysis
Format: cell-based
The response must be a number in % with no trailing unit.

Example cases with answers are listed next.
Query block: Quickly give me recorded Activity for "Cc1ccc(C2=CCN(CCN3C(=O)c4ccccc4C3=O)CC2)cc1"
Result block: 80

Query block: Quickly give me recorded Activity for "O=C1c2ccccc2C(=O)N1CCN1CCN(c2ccc(F)cc2)CC1"
Result block: 80.4

Continuing:
Query block: Quickly give me recorded Activity for "O=C1c2ccccc2C(=O)N1CCN1CCN(c2ccccc2)CC1"
Result block: 82

Query block: Quickly give me recorded Activity for "O=C1c2ccccc2C(=O)N1CCN1CCN(c2cc(F)cc(F)c2)CC1"
Result block: 79.6
